Entries and their inhibition
# ASSAY_REMARKS: yeast transport mutant growth inhibition pilot in 384-well plates, post-Golgi transport modulator project (AID 636); further: test concentration not given here
# RECORDED_CONDITIONS: absorbance 615 nm, about 18 h, active compounds read high
Could you give me the number in %? Just the number is fine.

Past entries and their recorded results:
{"COMPOUND": "CC1=C(C(N)=O)C(c2ccncc2)n2nc(-c3ccccc3Cl)nc2N1 (stereo not drawn)", "inhibition [%]": 0.53}
{"COMPOUND": "Cc1[nH]nc2c1C(C1CC=CCC1)C(C#N)=C(N)O2 (stereo not drawn)", "inhibition [%]": 0.65}

Consider CCOC(=O)c1ccc(N2Cc3cc(C)c(C)cc3C2)cc1O . Its measured inhibition is 4.27

Data provenance: PubChem BioAssay
